Compiled literature IC50, tested on UniProt:P28223.
endpoint label: IC50 (nM)

1. CC(C)COC(=O)Nc1ccc(OCCN2CCCC2)c(-c2c(Br)cnn2C)c1; 1.1
2. N#Cc1ccc2ccn(CCCN3CCC(c4noc5cc(F)ccc45)CC3)c2c1; 4.78
3. Cc1ncccc1Oc1ccc(NC(=O)c2c[nH]c3ccc(I)cc23)cn1; 84.7
4. Cn1nccc1-c1cc(NC(=O)C(=O)c2ccc(F)cc2)ccc1OCCN; 0.025

[a] Cn1nccc1-c1cc(NC(=O)c2ccno2)ccc1OCCN
[b] Cn1nccc1-c1cc(NC(=O)Cc2ccc(F)cc2)ccc1OCCN1CCOCC1
Task item: Just curious, which one has the larger IC50 reading, a or b ? Bench note: the answer is the label of the chosen record.
Reply: a
(a: 91 nM, b: 13.7 nM)

[a] Fc1ccc2c(C3CCN(CCCCn4cnc5ccc(F)cc54)CC3)noc2c1
[b] CCN1CCCC1CNC(=O)c1cc(S(=O)(=O)CC)c(NC)cc1OC (stereo not drawn)
Task item: Hey, between a and b which has a smaller measured IC50? Could you answer with the label of the item you picked?
Reply: a
(a: 3.99 nM, b: 270 nM)
